B1: LINE1-full (parent)
chain: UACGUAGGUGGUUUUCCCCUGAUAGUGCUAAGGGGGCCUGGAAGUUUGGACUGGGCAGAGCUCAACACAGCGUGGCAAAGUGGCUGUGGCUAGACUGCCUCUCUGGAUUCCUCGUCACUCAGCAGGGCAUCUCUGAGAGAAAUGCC

variants of: B1; assay: self-cleavage, relative activity (ratio to wild type); higher = more cleavage; in vitro, sequencing; the parent is a self-cleaving ribozyme
QUANTITY KIND: self-cleavage
Write the value as a bare number.

Previously resolved entries follow.
INSERT INTO assay_data (var, result_number) VALUES
  ('G72A A141G', 1.54),
  ('A69C U119A', 0.04),
  ('U26C U112C', 1.36),
  ('G97A U134G', 0.06),
  ('G32A A64G', 0.24),
  ('A6C A57G', 0.92),
  ('U12C A142U', 0.91),
  ('G41A A78U', 2.63);

Prompt: Can you share its self-cleavage? I mean this variant: U5A A59G
Completion: 0.11

Prompt: Then what about the variant U39C G106U ?
Completion: 0.4

Prompt: Then what about the variant U112C A140G ?
Completion: 0.83

Prompt: Then what about the variant G34A U96A ?
Completion: 0.05

Prompt: Then what about the variant U15A U104C ?
Completion: 1.06

Prompt: Then what about the variant U39C A78G ?
Completion: 0.95

Prompt: Then what about the variant A6G G83A ?
Completion: 0.26

Prompt: Then what about the variant U12A U45C ?
Completion: 0.82

Prompt: Then what about the variant U23C U102C ?
Completion: 1.33
